# Measurement Description: Antagonist activity at P2Y1 receptor in platelet-enriched human plasma assessed as 2.5 uM ADP-induced platelet aggregation preincubated for 1 min followed by ADP induction measured at 5 mins by aggregometric analysis

{"Molecule": "CC1CCN(c2ccccc2NC(=O)Nc2ccc(OC(F)(F)F)cc2)c2ccccc21 (stereo not given)", "IC50": "> 10 µM"}
{"Molecule": "CC(C)NC(=O)N1CCC2(CC1)CN(c1ccccc1NC(=O)Nc1ccc(OC(F)(F)F)cc1)c1ccccc12", "IC50": "> 10 µM"}
{"Molecule": "O=C(Nc1ccc(OC(F)(F)F)cc1)Nc1ccccc1N1CC2(CCC2)c2ccccc21", "IC50": "4.1 µM"}
{"Molecule": "CC(C)(C)CN1CCC2(CC1)CN(c1ccccc1NC(=O)Nc1ccc(OC(F)(F)F)cc1)c1ccccc12", "IC50": "0.67 µM"}
{"Molecule": "CC(C)CN1CCC2(CC1)CN(c1ccccc1NC(=O)Nc1ccc(OC(F)(F)F)cc1)c1ccccc12", "IC50": "2.2 µM"}

====

# Measurement Description: Antagonist activity at P2Y1 receptor in platelet-enriched human plasma assessed as 2.5 uM ADP-induced platelet aggregation preincubated for 1 min followed by ADP induction measured at 5 mins by aggregometric analysis
pIC50: −log10 of the molar value.
Is pIC50 at least 5? Then yes. If not, no.

{"Structure Smiles String": "O=C(Nc1ccc(OC(F)(F)F)cc1)Nc1ccccc1N1CC2(CCN(C(=O)OCc3ccccc3)CC2)c2ccccc21", "Class": "no"}
{"Structure Smiles String": "CC1(C)CN(c2ccccc2NC(=O)Nc2ccc(OC(F)(F)F)cc2)c2ccccc2O1", "Class": "no"}
{"Structure Smiles String": "O=C(Nc1ccc(OC(F)(F)F)cc1)Nc1ccccc1N1CC2(CC2)c2ccccc21", "Class": "no"}
{"Structure Smiles String": "COC(=O)N1CCC2(CC1)CN(c1ccccc1NC(=O)Nc1ccc(OC(F)(F)F)cc1)c1ccccc12", "Class": "yes"}
{"Structure Smiles String": "CC1(C)CCN(c2ccccc2NC(=O)Nc2ccc(OC(F)(F)F)cc2)c2ccccc21", "Class": "yes"}
{"Structure Smiles String": "O=C(Nc1ccc(OC(F)(F)F)cc1)Nc1ccccc1N1CC2(CCCCC2)c2ccccc21", "Class": "yes"}
{"Structure Smiles String": "COCCN1CCC2(CC1)CN(c1ccccc1NC(=O)Nc1ccc(OC(F)(F)F)cc1)c1ccccc12", "Class": "no"}
{"Structure Smiles String": "O=C(Nc1ccc(OC(F)(F)F)cc1)Nc1ccccc1N1CC2(CCCC2)c2ccccc21", "Class": "yes"}
{"Structure Smiles String": "CN1CCN(c2ccccc2NC(=O)Nc2ccc(OC(F)(F)F)cc2)c2ccccc21", "Class": "no"}

====

The molecules listed here are annotated with their pIC50.
# Measurement Description: Antagonist activity at P2Y1 receptor in platelet-enriched human plasma assessed as 10 uM ADP-induced platelet aggregation preincubated for 1 min followed by ADP induction measured at 5 mins by aggregometric analysis
pIC50: −log10 of the molar value.

{"Molecule": "COC(=O)N1CCC2(CC1)CN(c1ccccc1NC(=O)Nc1ccc(OC(F)(F)F)cc1)c1ccccc12", "Prefix Operator": "=", "pIC50": 4.27}
{"Molecule": "CC(C)(C)CN1CCC2(CC1)CN(c1ccccc1NC(=O)Nc1ccc(OC(F)(F)F)cc1)c1ncccc12", "Prefix Operator": "<", "pIC50": 4.40}
{"Molecule": "CC(C)(C)CN1CCC2(CC1)CN(c1ccccc1NC(=O)Nc1ccc(OC(F)(F)F)cc1)c1cnccc12", "Prefix Operator": "=", "pIC50": 5.40}
{"Molecule": "CC(C)(C)CN1CCC2(CC1)CCN(c1ccccc1NC(=O)Nc1ccc(OC(F)(F)F)cc1)c1ccccc12", "Prefix Operator": "=", "pIC50": 5.20}
{"Molecule": "O=C(Nc1ccc(OC(F)(F)F)cc1)Nc1ccccc1N1CC2(CCN(Cc3ccccc3)CC2)c2ccccc21", "Prefix Operator": "=", "pIC50": 4.73}
{"Molecule": "CC(C)(C)CN1CCC2(CC1)CN(c1ccccc1NC(=O)Nc1ccc(OC(F)(F)F)cc1)c1ccncc12", "Prefix Operator": "<", "pIC50": 4.40}
{"Molecule": "CC(C)(C)CN1CCC2(CC1)CN(c1ccccc1NC(=O)Nc1ccc(OC(F)(F)F)cc1)c1ccccc12", "Prefix Operator": "=", "pIC50": 5.31}
{"Molecule": "CC(C)CN1CCC2(CC1)CN(c1ccccc1NC(=O)Nc1ccc(OC(F)(F)F)cc1)c1ccccc12", "Prefix Operator": "=", "pIC50": 5.06}
{"Molecule": "CC(C)(C)CN1CCC2(CC1)CN(c1ccccc1NC(=O)Nc1ccc(OC(F)(F)F)cc1)c1cccnc12", "Prefix Operator": "=", "pIC50": 4.82}
{"Molecule": "CC(C)(C)CN1CCCC2(C1)CN(c1ccccc1NC(=O)Nc1ccc(OC(F)(F)F)cc1)c1ccccc12 (configuration not stated)", "Prefix Operator": "<", "pIC50": 4.40}
{"Molecule": "CC(C)(C)CN1CCC2(C1)CN(c1ccccc1NC(=O)Nc1ccc(OC(F)(F)F)cc1)c1ccccc12 (configuration not stated)", "Prefix Operator": "=", "pIC50": 4.73}
{"Molecule": "CC(C)N1CCC2(CC1)CN(c1ccccc1NC(=O)Nc1ccc(OC(F)(F)F)cc1)c1ccccc12", "Prefix Operator": "=", "pIC50": 4.53}
